Listed next: entries and their corresponding pIC50.
# Target under test: UniProt Q5TKS0
# Sequence (Q5TKS0 whole entry): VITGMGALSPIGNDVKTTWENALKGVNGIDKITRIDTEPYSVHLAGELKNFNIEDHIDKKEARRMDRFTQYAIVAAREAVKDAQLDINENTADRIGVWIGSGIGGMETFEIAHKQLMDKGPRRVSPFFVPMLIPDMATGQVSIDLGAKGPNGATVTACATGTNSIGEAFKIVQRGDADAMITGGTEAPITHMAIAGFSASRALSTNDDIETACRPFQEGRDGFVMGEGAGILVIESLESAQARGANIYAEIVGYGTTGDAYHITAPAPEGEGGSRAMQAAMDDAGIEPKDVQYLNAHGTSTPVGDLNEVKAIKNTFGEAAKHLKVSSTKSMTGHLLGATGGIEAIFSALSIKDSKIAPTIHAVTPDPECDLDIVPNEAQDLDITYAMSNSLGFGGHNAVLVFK
# Assay overview: Inhibition of FabF-mediated type 2 fatty acid synthesis in Staphylococcus aureus by cell free assay
When answering, recall that pIC50 equals minus log10 of the concentration in mol/L, and write that number alone.

Some solved cases for reference:
{"Compound": "CC12CC34CC1CC(O2)C3[C@](C)(CCC(=O)Nc1c(O)ccc(C(=O)O)c1O)C(=O)CC4c1ccccc1 (stereo partly drawn) [PHENYL DIHYDROPLATENSIMYCIN]", "pIC50": 5.11}
{"Compound": "CC1=CC(=O)[C@@](C)(CCC(=O)Nc2c(O)ccc(C(=O)O)c2O)C2C3CC4CC12CC4(C)O3 (stereo partly drawn)", "pIC50": 5.28}

Consider the record given below.
Looking up Cn1ncc2c1[C@@](C)(CCC(=O)Nc1c(O)ccc(C(=O)O)c1O)C1C3CC4CC1(C2)CC4(C)O3 (stereo partly drawn) , I found its pIC50 recorded as 3.81

* * *

# Test system: Staphylococcus aureus
# Assay overview: Antibacterial activity against antisense fabH/fabF sensitized Staphylococcus aureus assessed as minimum concentration required to show differential zone of fabF antisense strain clearance by two plate differential sensitivity assay
# Type: functional
Define the label as Satisfied when Activity is strictly less than 0.1 µg/mL and as Not satisfied in all remaining cases.

{"Compound": "CC12CC34CCC(=O)[C@@](C)(CCC(=O)Nc5c(O)ccc(C(=O)O)c5O)C3C(CC1C4)O2 (stereo not given in full) [DIHYDROPLATENSIMYCIN]", "Target under test": "Staphylococcus aureus", "Group label": "Not satisfied"}
{"Compound": "CC12C[C@@]34C=CC(=O)[C@@](C)(CCC(=O)Nc5c(O)ccc(C(=O)O)c5O)C3[C@H](CC1C4)O2 (stereo not given in full)", "Target under test": "Staphylococcus aureus", "Group label": "Satisfied"}

Lookup: Hi there! Is Activity for Cn1ncc2c1[C@@](C)(CCC(=O)Nc1c(O)ccc(C(=O)O)c1O)C1C3CC4CC1(C2)CC4(C)O3 (stereo not given in full) below 0.1 µg/mL, do you know?
Found: Not satisfied

Lookup: Hi there! Is Activity for CN1CC23CC4CC(OC4(C)C2)C3[C@](C)(CCC(=O)Nc2c(O)ccc(C(=O)O)c2O)C1=O (stereo not given in full) below 0.1 µg/mL, do you know?
Found: Not satisfied

Lookup: Hi there! Is Activity for CC1=CC(=O)[C@@](C)(CCC(=O)Nc2c(O)ccc(C(=O)O)c2O)C2C3CC4CC12CC4(C)O3 (stereo not given in full) below 0.1 µg/mL, do you know?
Found: Satisfied

Lookup: Hi there! Is Activity for CC12CC34COC(=O)[C@@](C)(CCC(=O)Nc5c(O)ccc(C(=O)O)c5O)C3C(CC1C4)O2 (stereo not given in full) below 0.1 µg/mL, do you know?
Found: Not satisfied

Lookup: Hi there! Is Activity for CC12CC34Cc5cnoc5[C@@](C)(CCC(=O)Nc5c(O)ccc(C(=O)O)c5O)C3C(CC1C4)O2 (stereo not given in full) below 0.1 µg/mL, do you know?
Found: Not satisfied

* * *

# Tested on: Staphylococcus aureus
# Assay overview: Antimicrobial activity against wild type Staphylococcus aureus
# Assay type: functional
Listed next: entries and their corresponding MIC.

Some solved cases for reference:
{"Molecule": "CC1=CC(=O)[C@@](C)(CCC(=O)Nc2c(O)ccc(C(=O)O)c2O)C2C3CC4CC12CC4(C)O3 (stereo not given in full)", "Metric": "MIC", "Reported value": "4 µg/mL"}
{"Molecule": "CC12C[C@@]34C=CC(=O)[C@@](C)(CCC(=O)Nc5c(O)ccc(C(=O)O)c5O)C3[C@H](CC1C4)O2 (stereo not given in full)", "Metric": "MIC", "Reported value": "0.5 µg/mL"}
{"Molecule": "CC1CC(=O)[C@@](C)(CCC(=O)Nc2c(O)ccc(C(=O)O)c2O)C2C3CC4CC12CC4(C)O3 (stereo not given in full)", "Metric": "MIC", "Reported value": "4 µg/mL"}

Consider the record given below.
Looking up CN1CC23CC4CC(OC4(C)C2)C3[C@](C)(CCC(=O)Nc2c(O)ccc(C(=O)O)c2O)C1=O (stereo not given in full) , I found its MIC recorded as > 64 µg/mL

Hello, the source for this data is ChEMBL document CHEMBL1153309, in case you need it.
